Hello, the source for this data is patent US7977355B2, in case you need it.

Assay Explanation: Thermodynamic solubility
Type: physicochemical
Experimental Parameters: aqueous buffer, thermodynamic from solid, 25° C., 100 mM phosphate buffer at pH 7.4
Measured Endpoint: solubility at 24 h

Problem: Recall and state the measured solubility at 24 h for CN(CCO)C(=O)c1ccc(C(=C2CCN(Cc3cscn3)CC2)c2cccc3cccnc23)cc1 [compound of the invention] .
Result: > 500 µM

----------
Assay Explanation: Log D (shake-flask)
Format: physicochemical
Experimental Parameters: octanol/buffer
Measured Endpoint: logD
Keep it simple and answer with nothing but the number.

Problem: State, in one line, measured logD of CN(CCO)C(=O)c1ccc(C(=C2CCN(Cc3cscn3)CC2)c2cccc3cccnc23)cc1
Result: 1.6
